Data origin: patent US20240425523A1

- tgt: p-EGFR L858R (BaF3-L858R cells) (Homo sapiens, UniProt P00533, L858R)
- Sequence (P00533 25-1210 L858R): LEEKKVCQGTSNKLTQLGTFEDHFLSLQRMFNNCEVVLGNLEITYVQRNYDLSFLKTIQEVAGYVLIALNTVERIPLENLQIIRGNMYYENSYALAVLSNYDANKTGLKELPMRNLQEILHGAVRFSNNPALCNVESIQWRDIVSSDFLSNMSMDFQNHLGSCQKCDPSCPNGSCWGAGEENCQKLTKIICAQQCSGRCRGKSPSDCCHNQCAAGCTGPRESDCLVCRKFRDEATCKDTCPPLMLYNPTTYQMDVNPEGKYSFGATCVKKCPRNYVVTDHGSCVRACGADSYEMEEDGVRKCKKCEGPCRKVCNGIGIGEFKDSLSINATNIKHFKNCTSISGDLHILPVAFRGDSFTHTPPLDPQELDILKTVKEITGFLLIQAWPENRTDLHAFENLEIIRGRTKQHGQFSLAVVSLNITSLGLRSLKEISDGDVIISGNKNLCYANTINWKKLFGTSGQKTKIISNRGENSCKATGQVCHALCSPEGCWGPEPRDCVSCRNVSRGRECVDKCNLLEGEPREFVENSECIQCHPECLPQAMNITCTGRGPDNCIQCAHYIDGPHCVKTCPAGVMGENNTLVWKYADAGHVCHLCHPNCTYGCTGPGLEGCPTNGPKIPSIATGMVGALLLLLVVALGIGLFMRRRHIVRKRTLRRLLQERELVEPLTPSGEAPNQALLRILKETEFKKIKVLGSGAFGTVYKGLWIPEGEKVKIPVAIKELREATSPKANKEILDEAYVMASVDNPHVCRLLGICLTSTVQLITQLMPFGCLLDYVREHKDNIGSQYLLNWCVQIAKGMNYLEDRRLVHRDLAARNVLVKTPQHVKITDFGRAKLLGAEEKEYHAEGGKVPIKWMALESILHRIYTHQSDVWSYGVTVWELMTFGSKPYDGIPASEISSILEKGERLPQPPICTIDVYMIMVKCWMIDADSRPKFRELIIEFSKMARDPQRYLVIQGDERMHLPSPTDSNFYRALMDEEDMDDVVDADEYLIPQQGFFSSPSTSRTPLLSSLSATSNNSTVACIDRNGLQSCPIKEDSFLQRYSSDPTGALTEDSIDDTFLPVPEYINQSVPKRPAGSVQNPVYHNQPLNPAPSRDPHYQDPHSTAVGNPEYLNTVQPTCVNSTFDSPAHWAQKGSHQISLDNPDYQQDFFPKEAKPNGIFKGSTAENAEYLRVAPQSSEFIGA
- protocol: Cell p-EGFR inhibition assay, HTRF, BaF3-L858R cells
- condition.notes: 16 h treatment, pEGFR inhibition
experimental.readout: IC50 (nM)

[[record]]
molecule = "COC[C@H]1CN(c2ccc3c(c2)N2C[C@@H]4CC[C@H](COc5c(c(C)nn5C)-c5cc(cc(C)n5)C(=O)/N=C/2N3)C4)CCN1C1CCN(c2ccc(OC3CCC(=O)NC3=O)cc2C)CC1 (some centres unmarked)"
experimental_readout = "IC50"
measurement_unit = "nM"
recorded_number = 6.86

[[record]]
molecule = "COC[C@@H]1CN(c2ccc3c(c2)N2C[C@@H]4CC[C@H](COc5c(c(C)nn5CCO)-c5cc(cc(C)n5)C(=O)/N=C/2N3)C4)CCN1C1CCN(c2cc(F)c([C@H]3CCC(=O)NC3=O)c(F)c2)CC1"
experimental_readout = "IC50"
measurement_unit = "nM"
recorded_number = 2.87

[[record]]
molecule = "Cc1cc2cc(n1)-c1c(C)nn(C)c1OC[C@H]1CC[C@H](C1)CN1/C(=N/C2=O)Nc2ccc(N3CC4CCC3CN4C3CCN(c4cc(F)c([C@H]5CCC(=O)NC5=O)c(F)c4)CC3)cc21"
experimental_readout = "IC50"
measurement_unit = "nM"
recorded_number = 2.35

[[record]]
molecule = "Cc1cc2cc(n1)-c1c(C)nn(C)c1OC[C@H]1CC[C@H](C1)CN1/C(=N/C2=O)Nc2ccc(N3CCC(NC4CN(c5c(F)cc(OC6CCC(=O)NC6=O)cc5F)C4)CC3)cc21 (some centres unmarked)"
experimental_readout = "IC50"
measurement_unit = "nM"
recorded_number = 72.6

[[record]]
molecule = "Cc1cc2cc(n1)-c1c(C)nn(C)c1OC[C@H]1CC[C@H](C1)CN1/C(=N/C2=O)Nc2ccc(N3CCC(CN(C)C4CCN(c5cc(F)c([C@H]6CCC(=O)NC6=O)c(F)c5)CC4)CC3)cc21"
experimental_readout = "IC50"
measurement_unit = "nM"
recorded_number = 7.09


###

- tgt: EGFR L858R (BaF3-L858R cells) (Homo sapiens, UniProt P00533, L858R)
- Construct: host or cells: BaF3
- protocol: Cell degradation of EGFR, HTRF assay, BaF3-L858R cells
- Assay type: cell-based
- condition.notes: 16 h treatment, maximum percentage of degradation
Recorded Dmax for the following compounds
experimental.readout: Dmax (%)

[[record]]
compound = "Cc1cc2cc(n1)-c1cnn(C)c1OC[C@H]1CCC(C1)CN1/C(=N/C2=O)Nc2ccc(N3CCN([C@H]4CCN(c5cc(F)c([C@H]6CCC(=O)NC6=O)c(F)c5)C[C@H]4F)CC3)cc21 (single isomer, unassigned)"
recorded_number = 79.7

[[record]]
compound = "COC[C@@H]1CN(c2ccc3c(c2)N2C[C@@H]4CC[C@H](COc5c(c(C)nn5C)-c5cc(cc(C)n5)C(=O)/N=C/2N3)C4)CCN1C1CCN(c2c(C)cc(C3CCC(=O)NC3=O)nc2C)CC1 (stereo partly shown)"
recorded_number = 87.6

[[record]]
compound = "Cc1cc2cc(n1)-c1c(C)nn(C)c1OC[C@H]1CC[C@H](C1)CN1/C(=N/C2=O)Nc2ccc(N3CCN(CC4CN(c5cc(F)c([C@H]6CCC(=O)NC6=O)c(F)c5)C4)[C@H](C(F)F)C3)cc21"
recorded_number = 90.3

[[record]]
compound = "COC[C@@H]1CN(c2ccc3c(c2)N2C[C@@H]4CC[C@H](COc5c(cnn5C)-c5cc(cc(C)n5)C(=O)/N=C/2N3)C4)CCN1CC1CN(c2ccc3c(c2)C(=O)N(C2CCC(=O)NC2=O)C3=O)C1 (stereo partly shown)"
recorded_number = 89.3

